Origin of measurements: patent US8143419B2

Assign pEC50 to each entry below.
- tested.target: hα7-wt nAChR (Homo sapiens, UniProt P36544)
- Construct: expressed in transfected cells
- Sequence (P36544 23-502): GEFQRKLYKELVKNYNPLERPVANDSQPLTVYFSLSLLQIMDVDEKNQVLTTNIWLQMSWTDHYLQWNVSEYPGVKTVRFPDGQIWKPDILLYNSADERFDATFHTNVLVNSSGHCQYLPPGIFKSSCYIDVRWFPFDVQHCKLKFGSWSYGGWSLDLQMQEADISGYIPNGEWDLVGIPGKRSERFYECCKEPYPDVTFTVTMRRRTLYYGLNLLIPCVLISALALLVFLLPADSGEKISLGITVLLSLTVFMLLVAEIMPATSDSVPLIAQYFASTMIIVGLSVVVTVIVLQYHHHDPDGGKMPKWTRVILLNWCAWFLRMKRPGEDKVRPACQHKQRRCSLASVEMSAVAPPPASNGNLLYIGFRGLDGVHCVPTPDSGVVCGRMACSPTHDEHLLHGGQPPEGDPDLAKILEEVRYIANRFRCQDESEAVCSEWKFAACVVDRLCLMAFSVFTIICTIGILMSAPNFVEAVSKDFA
- experiment: Ca2+ flux imaging (FLIPR) (Protocol A), PAM activity with choline as agonist
- Type: cell-based
- settings: "<5" = no top plateau at maximal concentration
pEC50: −log10 of the molar value.

Some entries whose results are on file:
{"columns": ["compound", "measurement.kind", "result.value"],
 "data": [
  ["OCCn1nc(Nc2cccc(C(F)(F)F)c2)nc1-c1cnc2c(c1)OCC2 [Compound 78]", "pEC50", "< 5.00"],
  ["Cn1nc(Nc2ccccc2)nc1-c1ccc(Cl)cc1Cl [Compound 18]", "pEC50", "< 5.00"]
]}

The reported pEC50 of the compound NC(=O)Cn1nc(Nc2cccc(C(F)(F)F)c2)nc1-c1ccc(Cl)cc1Cl [Compound 20] was < 5.00
